- Tested on: SF-539
- Procedure Details: NCI tumour cell line growth inhibition, 48 h
Calls of active or inactive are those of the source. Cut-off read from the data, not from the text of the source: active = GI50 up to about 1.1 µM and inactive = higher.
Value Type: GI50

Consider the compound Cc1ccc(NC(=O)c2cccc([N+](=O)[O-])c2O)c([N+](=O)[O-])c1 and give its measured GI50.
14.7 µM (inactive)

Consider the compound O=C1C2C(C(=O)N1OS(=O)(=O)c1ccccc1)N(Cc1ccccc1)C(=O)N2Cc1ccccc1 (stereo not given) and give its measured GI50.
> 100 µM (inactive)

Consider the compound O=C(O)CCCCCCCCC(=O)O and give its measured GI50.
> 79.3 µM (inactive)

Consider the compound CC1(C)CCOC(=O)C(Cl)CC1Cl (stereo not given) and give its measured GI50.
> 100 µM (inactive)

Consider the compound O=C1OC(c2ccco2)=N/C1=C\c1cccc([N+](=O)[O-])c1 and give its measured GI50.
> 100 µM (inactive)

Consider the compound COc1ccc(CNc2nc(NC3CCCCC3)nc(NC3CCCCC3)n2)cc1 and give its measured GI50.
8.28 µM (inactive)

Consider the compound CC1=CP(=O)(c2ccccc2)C=C(C)C1=C(Cl)Cl (stereo not given) and give its measured GI50.
5.24 µM (inactive)

Consider the compound COc1ccc(C2ON(c3ccccc3)CC=C2C)cc1 (stereo not given) and give its measured GI50.
> 100 µM (inactive)

Consider the compound COC1=CC(C)C2C[C@H]3O[C@H](O)C[C@H]4C(C)C(=O)C(O)C([C@@]2(C)C1=O)[C@@]34C (stereo not given in full) and give its measured GI50.
> 100 µM (inactive)

Consider the compound COc1cccc2c1C(CO)N1C(C#N)C3CC(C(=O)O)C(C1C2)N3C (stereo not given) and give its measured GI50.
1.41 µM (inactive)

---

Would you mind telling me the reported GI50 of each entry?
- Tested on: UACC-62
- Procedure Details: NCI tumour cell line growth inhibition, 48 h
The source made the active and inactive calls. No stated cut-off is given here; in the data, active = GI50 up to about 1.1 µM and inactive = higher.

Consider the compound COC1(c2cccs2)c2ccccc2C(OC)(c2cccs2)c2ccccc21 (stereo unspecified) and give its measured GI50.
47.3 µM (inactive)

Consider the compound c1ccc(/N=C(\N2CCOCC2)N(CCN2CCOCC2)c2ccccc2)cc1 and give its measured GI50.
> 100 µM (inactive)

Consider the compound Cc1nc2c(Cl)cc(Cl)cc2c(Cl)c1CCCl and give its measured GI50.
79.6 µM (inactive)

Consider the compound COc1ccc(/C=N/N=C(\N)NO)c(OC)c1 and give its measured GI50.
27.9 µM (inactive)

Consider the compound CC1(C)C=Cc2c(cc(O)c3c(=O)c4cc(Cl)ccc4[nH]c23)O1 and give its measured GI50.
2.58 µM (inactive)

Consider the compound Cn1c2ccccc2c(=O)c2c(O)cc3c(c21)C=CC(C)(C)O3 and give its measured GI50.
> 25 µM (inactive)

Consider the compound COc1ccccc1/N=N/c1c(O)c(S(=O)(=O)O)cc2cc(S(=O)(=O)O)ccc12 and give its measured GI50.
> 100 µM (inactive)

Consider the compound CCCCC(C(=O)CCC(=O)Nc1ccc(Cl)cc1)C(=O)C(C)C (stereo unspecified) and give its measured GI50.
18.2 µM (inactive)

Consider the compound COc1cc(/C=C2/CCS(=O)(=O)c3ccc(C)cc3C2=O)cc(OC)c1OC and give its measured GI50.
4.12 µM (inactive)

Consider the compound Cc1ccc(C(=O)c2[nH]c(Nc3ccc(Cl)cc3)c(C(=S)Nc3ccccc3)c2N)cc1 and give its measured GI50.
14.4 µM (inactive)

Consider the compound COC(=O)c1c(C)cccc1/C=C1\Cc2ccc(C)c(C)c2C1=O and give its measured GI50.
14.5 µM (inactive)

Consider the compound CC(C)[Si](OCC1CC(C[C@H]2CC(C[C@H]3C[C@@H](CO[Si](C(C)C)(C(C)C)C(C)C)OC(C)(C)O3)OC(C)(C)O2)OC(C)(C)O1)(C(C)C)C(C)C (stereo partly specified) and give its measured GI50.
> 100 µM (inactive)

Consider the compound CCCCn1c2c(n(CCCC)c1=S)-c1c(n(CCCC)c(=S)n1CCCC)SSSS2 and give its measured GI50.
1.47 µM (inactive)

Consider the compound CC(C)(C)[Si](C)(C)OCC1CCC(n2cnc3c(N)ncnc32)O1 (stereo unspecified) and give its measured GI50.
59.2 µM (inactive)

Consider the compound CN(CC(=O)O)S(=O)(=O)c1ccc(F)cc1 and give its measured GI50.
> 100 µM (inactive)

Consider the compound O=C(O)CCCCCCCCC(=O)O and give its measured GI50.
> 79.3 µM (inactive)

Consider the compound Fc1ccc2c3c([nH]c2c1)CCNC3 and give its measured GI50.
> 100 µM (inactive)

Consider the compound NC(=S)NNc1c([N+](=O)[O-])cnn(-c2ccccc2)c1=O and give its measured GI50.
12.1 µM (inactive)

Consider the compound O=S1(=O)OCCOS(=O)(=O)C1I and give its measured GI50.
40.1 µM (inactive)

Consider the compound Cn1ncc2c(NCCc3ccccc3)nc(Cl)nc21 and give its measured GI50.
5.97 µM (inactive)

Consider the compound Oc1ccc(O)c(CNc2ccc(C(O)C(F)(F)F)cc2)c1 (stereo unspecified) and give its measured GI50.
15.7 µM (inactive)

---

Would you mind telling me the reported GI50 of each entry?
- Tested on: TK-10
- Procedure Details: NCI tumour cell line growth inhibition, 48 h
Activity calls are given as the source filed them. No stated cut-off is given here; in the data, active = GI50 up to about 1.1 µM and inactive = higher.

Consider the compound COc1ccc(-c2cc(=O)c3ccccc3o2)cc1N and give its measured GI50.
> 100 µM (inactive)

Consider the compound CCc1cccc(CC)c1NC(=O)C(=O)Cc1nc2ccccc2o1 and give its measured GI50.
> 100 µM (inactive)

Consider the compound COC(=O)C(Cc1nc2ccccc2nc1O)C(=O)C(=O)Nc1cc(C(F)(F)F)ccc1Cl (stereo not given) and give its measured GI50.
21.1 µM (inactive)

Consider the compound COc1ccc(N2C(=O)C3CC4=CC(=O)C[C@H]4[C@H]32)cc1 (stereo not given in full) and give its measured GI50.
58.7 µM (inactive)

Consider the compound CC1(C)CC(C)(C)C1=NNC(N)=O and give its measured GI50.
> 100 µM (inactive)

---

- Test system: NCI-H460
- Procedure Details: NCI tumour cell line growth inhibition, 48 h
The source made the active and inactive calls. Cut-off read from the data, not from the text of the source: active = GI50 up to about 1.1 µM and inactive = higher.
Hi there, use one of these labels in your reply, thanks! TRUE = active, FALSE = inactive

I'd appreciate the recorded outcome for CC(=O)Oc1ccc2ccc(=O)oc2c1OC(C)=O from this test.
FALSE

I'd appreciate the recorded outcome for COc1ccc(C2ON(c3ccccc3)CC=C2C)cc1 (stereo not given) from this test.
FALSE

I'd appreciate the recorded outcome for c1ccc(CC(Nc2cccnc2)c2ccccc2)cc1 (stereo not given) from this test.
FALSE

I'd appreciate the recorded outcome for CCCCN1C(=O)C2c3[nH]c4ccccc4c3C3CCCCC3C2C1=O.CCCCN1C(=O)C2c3[nH]c4ccccc4c3[C@@H]3CCCCC3C2C1=O (stereo not given) from this test.
FALSE

I'd appreciate the recorded outcome for c1ccc([P+](c2ccccc2)(c2ccccc2)C2c3ccccc3-c3ccccc32)cc1 from this test.
FALSE

I'd appreciate the recorded outcome for Cc1cccc2nc3cccc(C(=O)NCCC[N+](C)(CCCNC(=O)c4cccc5nc6cccc(C)c6nc45)Cc4ccc([N+](=O)[O-])n4C)c3nc12 from this test.
TRUE

I'd appreciate the recorded outcome for O=c1cccccc1NCCCNc1cccccc1=O from this test.
FALSE

I'd appreciate the recorded outcome for COc1cc2c(cc1OC)C1c3ccccc3CCN1CC2 (stereo not given) from this test.
FALSE

I'd appreciate the recorded outcome for COc1ccc2c(c1)-c1c(c3ccccc3n1CCN1CCCCC1)CC2 from this test.
FALSE

I'd appreciate the recorded outcome for CC1=CC(=O)/C(=C/NC(=S)Nc2ccc(S(N)(=O)=O)cc2)C(=O)O1 from this test.
FALSE

---

- System: A549
- Procedure Details: NCI tumour cell line growth inhibition, 48 h
Where a name gives a salt, the structure may show the parent alone. Calls of active or inactive are those of the source. No stated cut-off is given here; in the data, active = GI50 up to about 1.1 µM and inactive = higher.
Hi there, use one of these labels in your reply, thanks! active, inactive

I'd appreciate the recorded outcome for O=C(COc1ccc(OCC(=O)N2C(=O)CC(=O)N(c3ccc(Cl)cc3)C2=S)cc1)N1C(=O)CC(=O)N(c2ccc(Cl)cc2)C1=S from this test.
inactive

I'd appreciate the recorded outcome for Nc1ccn(C=C=CCO)c(=O)n1 from this test.
inactive

I'd appreciate the recorded outcome for CN(C)CCNC(=O)c1cc([N+](=O)[O-])ccn1 from this test.
inactive

I'd appreciate the recorded outcome for N#Cc1c(N2CCOCC2)ncn(-c2ccccc2)c1=O from this test.
inactive

I'd appreciate the recorded outcome for CN(CC(=O)O)S(=O)(=O)c1ccc(F)cc1 from this test.
inactive

I'd appreciate the recorded outcome for N#CC(/C(=N\NC(N)=S)C(=O)NC1C2CC3CC(C2)CC1C3)c1ccc(Cl)cc1 (configuration not stated) from this test.
inactive

I'd appreciate the recorded outcome for COc1cc(/C=C2/CCS(=O)(=O)c3ccc(C)cc3C2=O)cc(OC)c1OC from this test.
inactive

I'd appreciate the recorded outcome for Cc1ccc2c(C3Cc4ccccc4N3C(=O)/C=C\C(=O)O)c(C)[nH]c2c1 (configuration not stated) from this test.
inactive

I'd appreciate the recorded outcome for Cc1cccc2nc3cccc(C(=O)NCCC[N+](C)(CCCNC(=O)c4cccc5nc6cccc(C)c6nc45)Cc4ccc([N+](=O)[O-])n4C)c3nc12 from this test.
active

I'd appreciate the recorded outcome for N#C/C(=C\c1ccc(Br)cc1)c1nc(-c2cc3ccccc3oc2=O)cs1 from this test.
inactive

I'd appreciate the recorded outcome for CC1=CP(=O)(c2ccccc2)C=C(C)C1=C(Cl)Cl (configuration not stated) from this test.
inactive

I'd appreciate the recorded outcome for CC1NC(C(=O)O)Cc2cc(O)c(O)cc21 (configuration not stated) from this test.
inactive

I'd appreciate the recorded outcome for COc1ccc2c(c1)-c1c(c3ccccc3n1CCN1CCCCC1)CC2 from this test.
inactive

I'd appreciate the recorded outcome for C[C@@H](CC(=O)OCc1ccccc1)OC1OC(COC(=O)C(C)(C)C)C(OC(=O)C(C)(C)C)C(OC(=O)C(C)(C)C)C1OC(=O)C(C)(C)C (some centres not stated) from this test.
inactive

I'd appreciate the recorded outcome for Fc1ccc2c3c([nH]c2c1)CCNC3 from this test.
inactive

I'd appreciate the recorded outcome for Oc1cc(Br)cc2cc(Br)cnc12 from this test.
inactive

I'd appreciate the recorded outcome for c1ccc2c(c1)c1c3n2-c2cc(on2)C3CCC1 (configuration not stated) from this test.
inactive

I'd appreciate the recorded outcome for Oc1ccc(O)c(CNc2ccc(C(O)C(F)(F)F)cc2)c1 (configuration not stated) from this test.
inactive

I'd appreciate the recorded outcome for CC(=O)Nc1ccc(/C=C/C(=O)N2CC(CCl)c3c2cc(N)c2ccccc32)cc1 (configuration not stated) from this test.
active

I'd appreciate the recorded outcome for CCc1ccc2c(c1)N(CC(C)CN(C)C)c1ccccc1S2 (configuration not stated) [ETYMEMAZINE HYDROCHLORIDE] from this test.
inactive

I'd appreciate the recorded outcome for CN1C[C@H]2[C@@H](C1=O)[C@H](c1ccccc1)ON2C from this test.
inactive

I'd appreciate the recorded outcome for CN(CCC(=O)N1CC(CCl)c2ccc([N+](=O)[O-])cc21)CCC(=O)N1CC(CCl)c2ccc([N+](=O)[O-])cc21 (configuration not stated) from this test.
inactive

I'd appreciate the recorded outcome for O=C1CCNC/C1=C\c1ccccc1 from this test.
inactive

I'd appreciate the recorded outcome for C(=C/c1nnnn1-c1ccccc1)/Nc1ccccc1 from this test.
inactive

I'd appreciate the recorded outcome for COc1ccc(/C=N/N=C(\N)NO)c(OC)c1 from this test.
inactive

I'd appreciate the recorded outcome for Cc1nnc2cc(C(=O)O)c3ccccc3n2c1=O from this test.
inactive

I'd appreciate the recorded outcome for COC(=O)c1c(C)cccc1/C=C1\Cc2ccc(C)c(C)c2C1=O from this test.
inactive

I'd appreciate the recorded outcome for Cn1ncc2c(NCCc3ccccc3)nc(Cl)nc21 from this test.
inactive

I'd appreciate the recorded outcome for N#CC1(C#N)C(c2ccccc2)C=CC12OCCCO2 (configuration not stated) from this test.
inactive

I'd appreciate the recorded outcome for CC1(C)CCOC(=O)C(Cl)CC1Cl (configuration not stated) from this test.
inactive

I'd appreciate the recorded outcome for OCC(O)C(O)C(O)c1nn(-c2ccc(Cl)cc2)c2nc3cc(Cl)c(Cl)cc3nc12 (configuration not stated) from this test.
inactive

I'd appreciate the recorded outcome for N=C(N)NCCCC(NC(=O)OCCCCn1ccc(N)nc1=O)C(=O)O (configuration not stated) from this test.
inactive

I'd appreciate the recorded outcome for COc1cc2c(cc1O)[C@H](Cc1ccc(Oc3cc(C[C@H]4c5cc(OC)c(OC)cc5CCN4C)ccc3OC)cc1)NCC2 from this test.
inactive

I'd appreciate the recorded outcome for NC(CCSCC(F)F)C(=O)O (configuration not stated) from this test.
inactive

I'd appreciate the recorded outcome for Clc1ccc(/C=C/c2csnn2)cc1 from this test.
inactive

I'd appreciate the recorded outcome for CC[C@@H](O)C[C@H]1CCC[C@@]2(C[C@@H]3OC(=O)/C=C/[C@@](C)(O)[C@@H](O)[C@H](C)[C@@H](O)[C@H](OC4CCC(N(C)C)C(C)O4)[C@@H](O)[C@](C)(O)CCCCC/C=C/[C@@H]4CC(C)(C)O[C@@]4(O)C[C@H](O2)[C@H]3C)O1 (some centres not stated) from this test.
active

I'd appreciate the recorded outcome for CC(=O)Oc1ccccc1C(=O)O from this test.
inactive

I'd appreciate the recorded outcome for COC(=O)Cc1c(C(=O)CC(C)(C)n2cnc(CCN3C(=O)CCC3=O)c2)[nH]c2ccccc12 from this test.
inactive

I'd appreciate the recorded outcome for CCc1cccc(CC)c1NC(=O)C(=O)Cc1nc2ccccc2o1 from this test.
inactive

I'd appreciate the recorded outcome for c1cnc(N2CCN(Cc3c[nH]c4ccccc34)CC2)nc1 from this test.
inactive

I'd appreciate the recorded outcome for CC(C)(C)C1CCP(=O)(c2ccccc2)CC1 (configuration not stated) from this test.
inactive

I'd appreciate the recorded outcome for COc1cc2c[n+]3ccc4cc(OC)c(OC)cc4c3cc2cc1O from this test.
inactive
